Tested on: SK-MEL-5 melanoma
Experiment Summary: NCI tumour cell line growth inhibition, 48 h; in the data active = GI50 below about 0.43 µM; inactive = the rest
Returns: one label drawn from active, inactive

Solved entries:
| Structure As Smiles | Category Label |
| --- | --- |
| COc1cc(Nc2ncccc2C(=O)NCc2cn(Cc3cccc(Oc4ccccc4)c3)nn2)cc(OC)c1 | inactive |
| COC(=O)C[C@](O)(CCCC(C)(C)O)C(=O)O[C@@H]1C(OC)=C[C@]23CCCN2CCc2cc4c(cc2[C@H]13)OCO4 | active |
| NC(=S)N/N=C/C(=O)O | inactive |
| C/C=C(\C)C(=O)O[C@H]1C=CC(=O)O[C@H]1CCC(=O)[C@H](C)O | inactive |

Consider now this further molecule.
So what was the verdict on COC(=O)c1ccc2c(c1)nc(NC(=O)c1ccccc1)n2CCCc1ccccc1 in this test?
inactive

* * *

System: DLD-1 colon
Experiment Summary: NCI tumour cell line growth inhibition, 48 h
Measure Name: TGI

| Molecule | TGI |
| --- | --- |
| CCN(CC)CCCN1CCc2c([nH]c3ccccc23)C1c1cccnc1 (stereo not drawn) | > 100 µM |
| CC1(C)COC(C2(C)C(=O)C=C(c3ccccc3)c3ccccc32)=N1 (stereo not drawn) | > 100 µM |
| CC(C)CCC1CC2C(=O)N(c3ccccc3)C(=O)C2c2[nH]c3ccccc3c21 (stereo not drawn) | 15 µM |

// each molecule listed below needs its TGI
1. Cc1ccc(S(=O)(=O)N(C=O)N=C2CCN(Cc3ccccc3)CC2)cc1
2. COc1cc2c(cc1OC)C(CC1=C(c3ccccc3)CN3CCc4cc(OC)c(OC)cc4C3C1)NCC2 (stereo not drawn)

1: > 100 µM; 2: 34.9 µM

* * *

Kindly state TGI for each of the entries shown.
Test system: NCI-H522 lung
Experiment Summary: NCI tumour cell line growth inhibition, 48 h

The following molecules have reported results that may help.
| Molecule | TGI |
| --- | --- |
| COC(=O)c1ccc(/C=C/c2cc(O)ccc2O)cc1 | 0.356 µM |
| CCOC(=O)c1cnc2c(ccc3[nH]n(C)nc32)c1=O | > 100 µM |
| Cc1cc(C)c2c(n1)sc1c(Nc3ccc(Cl)cc3)ncnc12 | > 100 µM |

// each molecule listed below needs its TGI
1. c1ccc(N=C(N2CCCC2)N(CCN2CCCC2)c2ccccc2)cc1
2. N#Cc1n[nH]n(-c2ccc(Br)cc2)c1=O
3. CC(=O)Nc1ccc(N=Nc2c(O)c(S(=O)(=O)O)cc3cc(S(=O)(=O)O)ccc23)cc1

> 100 µM
> 100 µM
> 100 µM

// each molecule listed below needs its TGI
1. O=c1sc2ccccc2n1CC1CS1 (configuration not stated)
2. CO/N=C(\C(=O)OC(=NC1CCCCC1)NC1CCCCC1)c1csc(NC(c2ccccc2)(c2ccccc2)c2ccccc2)n1
3. O=C(Nc1ccc(Nc2ccncc2)cc1)c1ccc([N+](=O)[O-])cc1
4. COc1cccc(C(=O)Oc2ccc(OS(=O)(=O)c3ccc(C)cc3)cc2)c1C#N
5. COc1cc(Nc2ncccc2C(=O)NCc2cn(Cc3cccc(Oc4ccccc4)c3)nn2)cc(OC)c1
6. O=C1Nc2cccc(Cl)c2/C1=C\c1c(Cl)nc2n1CCS2
7. N#C[C@H](c1ccccn1)c1nc2ccccc2nc1Cl

> 100 µM
> 10 µM
34.6 µM
> 100 µM
> 100 µM
> 100 µM
> 100 µM

// each molecule listed below needs its TGI
1. COc1cc(C2C3C=CC=C4CC=CC(=C43)C3CCC(=O)N32)cc(OC)c1OC (configuration not stated)
2. COc1cc(C2c3cc4c(cc3OC(N3CCCCC3)C2C)OCO4)cc(OC)c1O (configuration not stated)
3. CCN(CC)CCCN1CCc2c([nH]c3ccccc23)C1c1cccnc1 (configuration not stated)
4. O=[N+]([O-])c1cccc(C2=NN(c3ccccc3)C[N+](c3ccc(Br)cc3)=N2)c1
5. CC(=O)c1ccccc1NP(=O)(c1ccccc1)c1ccccc1
6. N#Cc1c(NC(=O)NCc2ccccc2)sc2c1CCCCC2

> 100 µM
22.2 µM
> 100 µM
> 100 µM
> 100 µM
25.3 µM

// each molecule listed below needs its TGI
1. Fc1ccc2c(c1)nc1n2C(c2c(Cl)cccc2Cl)SC1 (configuration not stated)
2. COC(=O)C1=C(C(=O)OC)N(c2ccc(OC)cc2[N+](=O)[O-])C(c2ccc(C)cc2)=CC1c1ccc(OC)cc1OC (configuration not stated)
3. NS(=O)(=O)c1ccc(/C=C/c2ccc(O)c(O)c2)cc1

28.7 µM
57.5 µM
4.79 µM

* * *

Test system: HOP-18 NSCLC
Experiment Summary: NCI tumour cell line growth inhibition, 48 h
Kindly state TGI for each of the entries shown.

| Compound | System Tested | TGI |
| --- | --- | --- |
| Nc1nc(Cl)cc(NCCCCCCCCNc2cc(Cl)nc(N)n2)n1 | HOP-18 NSCLC | > 100 µM |
| O=C(Nc1ccn(CCO)c(=O)n1)c1ccccc1 | HOP-18 NSCLC | > 100 µM |
| O=C1c2cccc3c2C(=O)c2c(cccc21)OCCOCCOCCOCCO3 | HOP-18 NSCLC | > 100 µM |

// each compound listed below needs its TGI
1. O=[N+]([O-])c1cccc(C2=NN(c3ccccc3)C[N+](c3ccc(Br)cc3)=N2)c1
2. CC(=O)CCn1ncc(Cl)c(Cl)c1=O
3. CC(C)N(C(=O)C12C3C4C1C1C4(C#N)C3C12C#N)C(C)C (stereo unspecified)
4. CC(=O)OC1/C=C(\C)C(OC(C)=O)C/C=C(/C)CCC2C(/C=C/C1=O)C2(C)C (stereo unspecified)

["> 100 µM", "30.5 µM", "> 100 µM", "> 100 µM"]

// each compound listed below needs its TGI
1. CC(C)CCC1CC2C(=O)N(c3ccccc3)C(=O)C2c2[nH]c3ccccc3c21 (stereo unspecified)
2. COc1ccc2occ(CCC(=O)O)c2c1
3. CC(C)(C)NNC(=O)CCn1[nH]c(=O)c(Cl)c(Cl)c1=O

21.6 µM
> 100 µM
> 100 µM

For the compound CC1(C)COC(C2(C)C(=O)C=C(c3ccccc3)c3ccccc32)=N1 (stereo unspecified) , report TGI.
> 100 µM

* * *

Kindly state TGI for each of the entries shown.
Tested on: IGROV1 ovarian
Experiment Summary: NCI tumour cell line growth inhibition, 48 h

The following compounds have reported results that may help.
| Compound | System Tested | Measure Name | Reported Measurement |
| --- | --- | --- | --- |
| Cc1ccc(S(=O)(=O)N(C=O)N=C2CCN(Cc3ccccc3)CC2)cc1 | IGROV1 ovarian | TGI | > 100 µM |
| CCCC(=O)OCC1OC(n2ccc(N)nc2=O)C(OC(=O)CCC)C1OC(=O)CCC (stereo not given) | IGROV1 ovarian | TGI | > 100 µM |
| COc1cc(OCc2cccc(-c3ccc(C(O)c4nccs4)cc3)c2C)cc(OC)c1C=O (stereo not given) | IGROV1 ovarian | TGI | 4.84 µM |
| Cc1cn2c(=O)c3ncn(C4OC(CO)C(O)C4O)c3n(C)c2n1 (stereo not given) | IGROV1 ovarian | TGI | > 100 µM |
| CN1CCN(C2CCN(C(=O)Nc3cc(Oc4ccc(NC(=O)C5(C(=O)Nc6ccc(F)cc6)CC5)c(F)c4)ccn3)CC2)CC1 | IGROV1 ovarian | TGI | > 10 µM |

// each compound listed below needs its TGI
1. COc1cccc(CCNC(=O)Cc2ccccc2CCO)c1
2. CCOC(=O)NC(Nc1ccc(C)cc1)(C(F)(F)F)C(F)(F)F
3. CSC1=Nc2c(c(C)c(C)n2COC(CO)CO)C2=NC(=O)C(C)N12 (stereo not given)
4. C=CCc1c(O)c2c(c3oc(=O)cc(C)c13)CC(C)O2 (stereo not given)
5. CC(=O)CCn1c(=S)sc2ccccc21

["> 100 µM", "> 100 µM", "> 100 µM", "> 100 µM", "> 100 µM"]

* * *

System: MDA-MB-435
Experiment Summary: NCI tumour cell line growth inhibition, 48 h
Kindly state TGI for each of the entries shown.

The following molecules have reported results that may help.
| Molecule | Reported Measurement |
| --- | --- |
| Cc1cc(C)c2c(n1)sc1c(Nc3ccc(Cl)cc3)ncnc12 | > 100 µM |
| CC1(C)/C(=N\NC(N)=O)C2CCC1C2 (stereo unspecified) | > 100 µM |
| COC[C@@H](N=CC(C)(C)C)C(C)C | > 100 µM |
| NC(=S)N/N=C/C(=O)O | > 100 µM |
| Cc1ccc(C2SCC(=O)N2c2ccc(-n3c(-c4ccccc4)nc4ccccc4c3=O)cc2)cc1 (stereo unspecified) | 65.3 µM |

// each molecule listed below needs its TGI
1. Cc1ccc(SC2c3ccc(C)cc3Oc3nc(N)c(C#N)c(N)c32)cc1 (stereo unspecified)
2. CC1=C(C)CC2C(=O)N(c3cc(C(C)(C)C)ccc3C(C)(C)C)C(=O)C2C1 (stereo unspecified)
3. O=C(N/N=C(\c1ccccc1)c1ccccn1)NC1CCCCC1
4. CN(C)CCNC(=O)c1cccc2ccc(-c3ccc(O)cc3)nc12
5. O=c1oc2ccccc2cc1-c1cc2ccccn2c1
6. COc1cccc(C(=O)Oc2ccc(OS(=O)(=O)c3ccc(C)cc3)cc2)c1C#N

1: 3.4 µM; 2: > 100 µM; 3: > 100 µM; 4: 15.5 µM; 5: > 100 µM; 6: > 100 µM

// provenance: PubChem BioAssay (NCI)
